molecular target: Cyclin-dependent kinase 2/cyclin A (Homo sapiens); test: Inhibitory activity against CDK2/Cyclin A
TEST_READOUT: IC50

INSERT INTO results (entry_smiles, test_readout, data_value) VALUES
  ('O=C(NC1CCCCC1)c1cc2c(-c3ccccc3)n[nH]c2s1', 'IC50', '11 µM');

// recorded IC50 for O=C(NCCc1ccccc1)c1cc2c(-c3ccccc3)n[nH]c2s1 : > 20 µM

# IC50 of CCCCN(C)C(=O)c1cc2c(-c3ccccc3)n[nH]c2s1 = > 20 µM

For record CN1CCN(C(=O)c2cc3c(-c4ccccc4)n[nH]c3s2)CC1 the listed IC50 is > 20 µM

Reported IC50 ( COc1ccc(CNC(=O)c2cc3c(-c4ccccc4)n[nH]c3s2)cc1 ) = > 20 µM

----------
Measured IC50, listed per entry for reference.
target: Casein kinase II (Homo sapiens, UniProt P19784+P67870+P68400); assay: Inhibitory activity against CK2
Sequence (P67870 whole entry): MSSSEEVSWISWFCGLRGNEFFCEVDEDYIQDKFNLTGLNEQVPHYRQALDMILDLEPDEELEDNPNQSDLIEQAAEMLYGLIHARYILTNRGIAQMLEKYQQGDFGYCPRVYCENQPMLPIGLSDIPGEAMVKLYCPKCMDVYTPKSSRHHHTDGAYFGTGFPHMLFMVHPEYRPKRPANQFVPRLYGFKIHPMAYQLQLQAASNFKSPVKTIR
Sequence (P68400 whole entry): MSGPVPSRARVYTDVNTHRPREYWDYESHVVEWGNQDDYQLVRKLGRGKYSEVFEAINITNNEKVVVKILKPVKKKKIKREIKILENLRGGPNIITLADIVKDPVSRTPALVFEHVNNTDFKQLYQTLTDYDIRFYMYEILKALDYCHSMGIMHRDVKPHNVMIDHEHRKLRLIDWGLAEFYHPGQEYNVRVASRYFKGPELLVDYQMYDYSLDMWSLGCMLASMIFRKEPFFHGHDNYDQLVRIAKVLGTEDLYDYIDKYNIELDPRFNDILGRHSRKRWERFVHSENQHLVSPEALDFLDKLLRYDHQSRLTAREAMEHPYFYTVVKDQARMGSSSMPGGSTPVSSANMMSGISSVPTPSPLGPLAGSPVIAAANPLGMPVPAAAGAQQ
Sequence (P19784 whole entry): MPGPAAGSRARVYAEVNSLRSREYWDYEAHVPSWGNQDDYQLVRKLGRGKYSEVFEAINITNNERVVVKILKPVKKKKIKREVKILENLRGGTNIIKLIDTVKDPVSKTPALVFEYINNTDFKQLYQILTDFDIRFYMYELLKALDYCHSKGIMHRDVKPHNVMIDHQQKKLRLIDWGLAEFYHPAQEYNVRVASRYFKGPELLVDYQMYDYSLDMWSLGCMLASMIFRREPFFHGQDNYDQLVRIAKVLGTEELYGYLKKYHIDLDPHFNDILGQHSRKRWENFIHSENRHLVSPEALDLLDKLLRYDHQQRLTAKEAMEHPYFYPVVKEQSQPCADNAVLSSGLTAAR
Write the number in µM without appending the unit.

These recorded examples may help you get a feel for the data.
INSERT INTO measurements (entry_smiles, unit_text, data_value) VALUES
  ('Cc1[nH]nc2sc(C(N)=O)c(NC(=O)Nc3ccccc3)c12', 'µM', 11),
  ('Cc1n[nH]c2sc(C(=O)NCc3ccccc3)cc12', 'µM', 19),
  ('COC(=O)c1cc2c(C)n[nH]c2s1', 'µM', 38),
  ('Cc1n[nH]c2sc(C(N)=O)c(NC(=O)COc3ccccc3)c12', 'µM', 6),
  ('COC(=O)c1cc2c(Nc3ccccc3)[nH]nc2s1', 'µM', 5),
  ('Cc1n[nH]c2sc(C(N)=O)cc12', 'µM', 4),
  ('CC(=O)Nc1c(C(N)=O)sc2n[nH]c(C)c12', 'µM', 9),
  ('O=C(NCc1ccccc1)c1cc2c(-c3ccccc3)n[nH]c2s1', 'µM', 2);

Casein kinase II (Homo sapiens, UniProt P19784+P67870+P68400) assay, compound CCCCN(C)C(=O)c1cc2c(C)n[nH]c2s1 , recorded IC50 = 24

Entry Cc1[nH]nc2sc(C(N)=O)c(NC(=O)c3ccccc3Cl)c12 , tested on Casein kinase II (Homo sapiens, UniProt P19784+P67870+P68400), has a reported IC50 of 9

Test item CCCCNC(=O)c1cc2c(C)n[nH]c2s1 ; Casein kinase II (Homo sapiens, UniProt P19784+P67870+P68400); reported IC50 was 21

Hey, Casein kinase II (Homo sapiens, UniProt P19784+P67870+P68400) data for COC(=O)C(=O)Nc1c(C(N)=O)sc2[nH]nc(C)c12 : IC50 came out at 3

Item CCCCN(C)C(=O)c1cc2c(-c3ccccc3)n[nH]c2s1 was tested on Casein kinase II (Homo sapiens, UniProt P19784+P67870+P68400); the reported IC50 is 5

----------
target: Serine/threonine-protein kinase PAK 4 (Homo sapiens)
Sequence (O96013 whole entry): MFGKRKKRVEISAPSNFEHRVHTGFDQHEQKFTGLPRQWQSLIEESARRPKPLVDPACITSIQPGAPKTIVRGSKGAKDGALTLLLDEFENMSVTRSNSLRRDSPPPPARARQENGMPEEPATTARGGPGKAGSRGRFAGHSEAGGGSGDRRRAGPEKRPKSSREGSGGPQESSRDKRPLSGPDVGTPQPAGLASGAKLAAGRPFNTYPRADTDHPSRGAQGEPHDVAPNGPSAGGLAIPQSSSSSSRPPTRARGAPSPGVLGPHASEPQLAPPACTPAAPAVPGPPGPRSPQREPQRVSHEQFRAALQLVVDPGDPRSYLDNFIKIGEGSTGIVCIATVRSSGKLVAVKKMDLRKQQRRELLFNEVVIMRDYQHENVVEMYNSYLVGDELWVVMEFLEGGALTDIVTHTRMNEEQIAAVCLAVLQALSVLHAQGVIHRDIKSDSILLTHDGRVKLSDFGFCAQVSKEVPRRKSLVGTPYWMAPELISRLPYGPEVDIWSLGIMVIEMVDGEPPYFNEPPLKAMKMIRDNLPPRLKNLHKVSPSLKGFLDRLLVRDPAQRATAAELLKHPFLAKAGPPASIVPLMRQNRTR
# maps each entry to its IC50

INSERT INTO measurements (entry_smiles, data_value) VALUES
  ('COC(=O)c1cc2c(C)n[nH]c2s1', '> 100 µM');

Quick note, IC50 for CCCCN(C)C(=O)c1cc2c(-c3ccccc3)n[nH]c2s1 landed at > 20 µM

Please fill in: IC50 reported for O=C(NCc1ccccc1)c1cc2c(-c3ccccc3)n[nH]c2s1 = > 20 µM

So for O=C(NCCc1ccccc1)c1cc2c(-c3ccccc3)n[nH]c2s1 , the logged IC50 turned out to be > 20 µM

# molecule Cc1n[nH]c2sc(C(=O)NCc3ccccc3)cc12 ; its IC50 = > 20 µM

Form: molecule = Cc1n[nH]c2sc(C(N)=O)c(NC(=O)c3cccs3)c12 ; IC50 = > 100 µM

Reported IC50 of Cc1n[nH]c2sc(C(N)=O)c(NC(=O)COc3ccccc3)c12 : > 100 µM

Per the record, CCCCNC(=O)c1cc2c(C)n[nH]c2s1 has IC50 of > 20 µM

----------
biological target: MAP kinase-activated protein kinase 2 (Homo sapiens, UniProt P49137); test: Inhibitory activity against MK2
Sequence (P49137 whole entry): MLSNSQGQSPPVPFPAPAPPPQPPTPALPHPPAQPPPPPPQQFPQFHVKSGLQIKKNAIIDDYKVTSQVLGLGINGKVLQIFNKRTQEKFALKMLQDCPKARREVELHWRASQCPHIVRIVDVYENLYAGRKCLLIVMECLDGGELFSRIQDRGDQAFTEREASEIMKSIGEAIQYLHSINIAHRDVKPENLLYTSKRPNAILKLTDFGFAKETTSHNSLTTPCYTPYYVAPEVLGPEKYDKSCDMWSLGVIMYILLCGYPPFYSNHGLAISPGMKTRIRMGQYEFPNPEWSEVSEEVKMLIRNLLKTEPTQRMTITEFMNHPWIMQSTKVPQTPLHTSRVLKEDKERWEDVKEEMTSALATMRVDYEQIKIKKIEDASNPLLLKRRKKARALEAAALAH
pIC50: −log10 of the molar value.
TEST_READOUT: pIC50

Some solved cases for reference:
INSERT INTO measurements (entry_smiles, data_value) VALUES
  ('CCCCNC(=O)c1cc2c(C)n[nH]c2s1', '< 4.70'),
  ('Cc1n[nH]c2sc(C(N)=O)cc12', '< 4.70'),
  ('CCCCN(C)C(=O)c1cc2c(-c3ccccc3)n[nH]c2s1', '< 4.70'),
  ('COc1ccc(CNC(=O)c2cc3c(-c4ccccc4)n[nH]c3s2)cc1', 4.80),
  ('O=C(NCCc1ccccc1)c1cc2c(-c3ccccc3)n[nH]c2s1', '< 4.70'),
  ('CN1CCN(C(=O)c2cc3c(-c4ccccc4)n[nH]c3s2)CC1', '< 4.70');

The molecule O=C(NCc1ccccc1)c1cc2c(-c3ccccc3)n[nH]c2s1 , when measured on MAP kinase-activated protein kinase 2 (Homo sapiens, UniProt P49137), yielded pIC50 of 4.77

Recorded pIC50 for Cc1n[nH]c2sc(C(=O)NC3CCCCC3)cc12 on MAP kinase-activated protein kinase 2 (Homo sapiens, UniProt P49137) was < 4.70

Tested system MAP kinase-activated protein kinase 2 (Homo sapiens, UniProt P49137); pIC50 recorded for O=C(NC1CCCCC1)c1cc2c(-c3ccccc3)n[nH]c2s1 was < 4.70

Measured pIC50 (MAP kinase-activated protein kinase 2 (Homo sapiens, UniProt P49137)), entry CCCCN(C)C(=O)c1cc2c(C)n[nH]c2s1 : < 4.70

Readout pIC50 for Cc1n[nH]c2sc(C(=O)NCc3ccccc3)cc12 , test system MAP kinase-activated protein kinase 2 (Homo sapiens, UniProt P49137), was < 4.70

----------
target: Vascular endothelial growth factor receptor 2 (Homo sapiens, UniProt P35968)
Sequence (P35968 whole entry): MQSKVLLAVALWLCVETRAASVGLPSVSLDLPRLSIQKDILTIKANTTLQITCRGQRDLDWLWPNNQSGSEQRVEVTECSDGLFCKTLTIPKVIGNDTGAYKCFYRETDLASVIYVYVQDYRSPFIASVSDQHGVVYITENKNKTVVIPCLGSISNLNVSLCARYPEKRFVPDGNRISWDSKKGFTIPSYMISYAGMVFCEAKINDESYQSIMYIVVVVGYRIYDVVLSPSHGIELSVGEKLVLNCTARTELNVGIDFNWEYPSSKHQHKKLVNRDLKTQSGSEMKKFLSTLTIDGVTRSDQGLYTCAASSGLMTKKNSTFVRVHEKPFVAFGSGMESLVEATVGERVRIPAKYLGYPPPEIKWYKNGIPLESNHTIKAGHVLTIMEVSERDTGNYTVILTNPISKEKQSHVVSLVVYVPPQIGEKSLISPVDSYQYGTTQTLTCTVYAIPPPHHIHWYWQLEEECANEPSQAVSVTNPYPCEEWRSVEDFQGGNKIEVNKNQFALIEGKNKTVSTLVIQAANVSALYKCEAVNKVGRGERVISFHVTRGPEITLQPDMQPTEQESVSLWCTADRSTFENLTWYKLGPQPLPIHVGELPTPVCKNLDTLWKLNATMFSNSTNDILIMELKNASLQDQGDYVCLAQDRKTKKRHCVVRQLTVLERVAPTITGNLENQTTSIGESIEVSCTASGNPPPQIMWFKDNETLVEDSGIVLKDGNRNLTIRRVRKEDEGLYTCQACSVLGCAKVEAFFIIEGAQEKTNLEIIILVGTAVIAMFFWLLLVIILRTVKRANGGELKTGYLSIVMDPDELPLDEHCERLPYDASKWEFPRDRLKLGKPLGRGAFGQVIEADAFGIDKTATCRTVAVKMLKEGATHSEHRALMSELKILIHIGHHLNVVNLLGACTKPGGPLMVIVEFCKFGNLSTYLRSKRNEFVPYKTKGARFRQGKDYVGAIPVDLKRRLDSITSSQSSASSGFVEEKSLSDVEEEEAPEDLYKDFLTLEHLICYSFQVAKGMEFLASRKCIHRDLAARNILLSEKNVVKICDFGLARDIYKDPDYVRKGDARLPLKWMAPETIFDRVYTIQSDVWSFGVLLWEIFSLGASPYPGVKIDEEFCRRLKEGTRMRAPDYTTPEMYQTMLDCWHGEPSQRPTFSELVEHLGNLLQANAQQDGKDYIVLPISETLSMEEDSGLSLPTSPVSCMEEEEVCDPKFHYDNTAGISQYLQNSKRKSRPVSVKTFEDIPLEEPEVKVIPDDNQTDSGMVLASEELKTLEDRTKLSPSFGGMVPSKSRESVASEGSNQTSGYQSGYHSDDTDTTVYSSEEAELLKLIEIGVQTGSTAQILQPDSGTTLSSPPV
Below is a list of entries, each paired with its recorded IC50 value.
Enter your answer as a number in µM; do not include the unit.

INSERT INTO assay_data (entry_smiles, data_value) VALUES
  ('CCCCNC(=O)c1cc2c(C)n[nH]c2s1', 16),
  ('CCCCN(C)C(=O)c1cc2c(-c3ccccc3)n[nH]c2s1', 0.35),
  ('CC(=O)Nc1c(C(N)=O)sc2n[nH]c(C)c12', 19);

Query compound follows.
Considering CN1CCN(C(=O)c2cc3c(-c4ccccc4)n[nH]c3s2)CC1 , its IC50 with Vascular endothelial growth factor receptor 2 (Homo sapiens, UniProt P35968) was recorded as 4

----------
Items are presented alongside their recorded IC50.
target: Casein kinase II (Homo sapiens, UniProt P19784+P67870+P68400); assay: Inhibitory activity against CK2

Use the examples below as a reference point.
INSERT INTO results (entry_smiles, assayed_target, test_readout, data_value) VALUES
  ('O=C(NCCc1ccccc1)c1cc2c(-c3ccccc3)n[nH]c2s1', 'Casein kinase II (Homo sapiens, UniProt P19784+P67870+P68400)', 'IC50', '> 20 µM'),
  ('Cc1n[nH]c2sc(C(N)=O)c(NC(=O)c3cccs3)c12', 'Casein kinase II (Homo sapiens, UniProt P19784+P67870+P68400)', 'IC50', '> 100 µM'),
  ('Cc1n[nH]c2sc(C(=O)NC3CCCCC3)cc12', 'Casein kinase II (Homo sapiens, UniProt P19784+P67870+P68400)', 'IC50', '> 20 µM'),
  ('Cc1[nH]nc2sc(C(N)=O)c(NC(=O)c3ccc(Cl)cc3)c12', 'Casein kinase II (Homo sapiens, UniProt P19784+P67870+P68400)', 'IC50', '> 100 µM'),
  ('COC(=O)c1cc2c(CN3CCCCC3)n[nH]c2s1', 'Casein kinase II (Homo sapiens, UniProt P19784+P67870+P68400)', 'IC50', '> 100 µM'),
  ('Cc1n[nH]c2sc(C(N)=O)c(NC(=O)c3cccc(Cl)c3)c12', 'Casein kinase II (Homo sapiens, UniProt P19784+P67870+P68400)', 'IC50', '> 100 µM'),
  ('CN1CCN(C(=O)c2cc3c(-c4ccccc4)n[nH]c3s2)CC1', 'Casein kinase II (Homo sapiens, UniProt P19784+P67870+P68400)', 'IC50', '> 20 µM'),
  ('COc1ccc(CNC(=O)c2cc3c(-c4ccccc4)n[nH]c3s2)cc1', 'Casein kinase II (Homo sapiens, UniProt P19784+P67870+P68400)', 'IC50', '> 20 µM');

Next:
Reported IC50 of O=C(NC1CCCCC1)c1cc2c(-c3ccccc3)n[nH]c2s1 : > 20 µM
